Procedure summary: qHTS assay for small molecule disruptors of the mitochondrial membrane potential (AID 720635)
Condition description: HepG2 mitochondrial membrane potential, Mito-MPS dye ratio; series mostly up to 83.2 µM
Records with an inconclusive call do not appear. Calls of active or inactive are those of the source. Calls come from the whole dose curve; as a rule, active = well fitted inhibition curve with a large enough effect in the signal ratio in the repeat runs; inconclusive = weak or mixed curves, or effect the other way; inactive = flat fitted curve, though single readings scatter; the % refers to the signal ratio.
Outcome (select one): Y for active, N for inactive

Exercise: Look up the recorded call for Cc1ccc(N(SC(F)(Cl)Cl)S(=O)(=O)N(C)C)cc1 in this test.
Solution: Y

Exercise: Look up the recorded call for Cc1cc(C(C)(C)c2ccc(O)c(C)c2)ccc1O in this test.
Solution: Y

Exercise: Look up the recorded call for O=C1Nc2ccc(Cl)cc2C(c2ccccc2Cl)=NC1O (configuration not stated) in this test.
Solution: N

Exercise: Look up the recorded call for CC(=O)O[C@H]1C[C@H](O[C@H]2[C@@H](O)C[C@H](O[C@H]3[C@@H](O)C[C@H](OC4CC[C@@]5(C)[C@H](CC[C@@H]6[C@@H]5CC[C@]5(C)[C@@H](C7=CC(=O)OC7)CC[C@]65O)C4)O[C@@H]3C)O[C@@H]2C)O[C@H](C)[C@H]1O[C@@H]1O[C@H](CO)[C@@H](O)[C@H](O)[C@H]1O (some centres not stated) in this test.
Solution: Y

Exercise: Look up the recorded call for C[C@@H]1[C@@H]2Cc3ccc(O)cc3[C@@]1(C)CCN2CCc1ccccc1 in this test.
Solution: N

Exercise: Look up the recorded call for COC(=O)[C@]12CCC(C)(C)C[C@H]1[C@H]1C(=O)C=C3[C@@]4(C)C=C(C#N)C(=O)C(C)(C)[C@@H]4CC[C@@]3(C)[C@]1(C)CC2 in this test.
Solution: Y

Exercise: Look up the recorded call for CN1[C@H]2CC[C@@H]1[C@@H](C(=O)O)[C@@H](OC(=O)c1ccccc1)C2 in this test.
Solution: N

----------
Procedure summary: qHTS assay for small molecule disruptors of the mitochondrial membrane potential - cell viability (AID 720634); note: nearly all actives have a fitted effect of over 20% in size
Condition description: HepG2 viability, ATP luminescence (CellTiter-Glo), 1 h; series mostly up to 83.2 µM
Records with an inconclusive call do not appear. Activity calls are given as the source filed them. The call rests on the fitted dose curve.
Outcome (select one): 1 = active, 0 = inactive

Exercise: Look up the recorded call for NC(=O)CN1CC(O)CC1=O (centres undefined) in this test.
Solution: 0

Exercise: Look up the recorded call for CCCCCN(C)CCC(O)(P(=O)(O)O)P(=O)(O)O in this test.
Solution: 0

Exercise: Look up the recorded call for CCC/C=C/C=C/C(=O)O[C@H]1/C(=C/C(=O)OC)C[C@H]2C[C@H]([C@@H](C)O)OC(=O)C[C@H](O)C[C@@H]3C[C@H](OC(C)=O)C(C)(C)[C@](O)(C[C@@H]4C/C(=C/C(=O)OC)C[C@H](/C=C/C(C)(C)[C@]1(O)O2)O4)O3 in this test.
Solution: 0

Exercise: Look up the recorded call for [H+].[H+].[Hg+2].[O-]B([O-])[O-].[c-]1ccccc1 in this test.
Solution: 1

----------
Procedure summary: qHTS assay to identify small molecule antagonists of the estrogen receptor alpha (ER-alpha) signaling pathway using the BG1 cell line - cell viability counter screen (AID 743081);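 note: compound given together with 17beta-estradiol as the ER stimulus; nearly all actives have a fitted effect of over 45% in size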
Condition description: BG1Luc4E2 viability, CellTiter-Fluor, 22 h; series mostly up to 70.3 µM
Records with an inconclusive call do not appear. Calls of active or inactive are those of the source. Calls follow the shape of the dose curve; as a rule, active = well fitted cell-killing curve with a large enough effect in the repeat runs; inconclusive = weak or mixed curves, or effect the other way; inactive = flat fitted curve, though single readings scatter.
Outcome (select one): active, inactive

Exercise: Look up the recorded call for COc1cc(OC)c(OC)cc1C=O in this test.
Solution: inactive

Exercise: Look up the recorded call for C[N+]1(C)CCCCC1COC(=O)C(O)(c1ccccc1)c1ccccc1 (stereo not given) in this test.
Solution: inactive

Exercise: Look up the recorded call for CCC1(c2cnc[nH]2)Cc2ccccc2C1 in this test.
Solution: inactive

Exercise: Look up the recorded call for NCC[C@H](O)C(=O)N[C@@H]1C[C@H](N)[C@@H](O[C@H]2O[C@H](CN)[C@@H](O)[C@H](O)[C@H]2N)[C@H](O[C@@H]2O[C@H](CO)[C@@H](O)[C@H]2O)[C@H]1O in this test.
Solution: inactive

Exercise: Look up the recorded call for Cc1cc(C)cc(C(=O)OC2C[C@H]3CC[C@@H](C2)N3C)c1 (stereo not given in full) in this test.
Solution: inactive

Exercise: Look up the recorded call for O=C(O)/C=C\C(=O)O in this test.
Solution: inactive

Exercise: Look up the recorded call for NC(=O)CN1CC(O)CC1=O (stereo not given) in this test.
Solution: inactive

Exercise: Look up the recorded call for CCOc1ccc2c3c1O[C@H]1[C@@H](O)C=C[C@H]4[C@@H](C2)N(C)CC[C@@]341 in this test.
Solution: inactive

Exercise: Look up the recorded call for CC(C)(O)[C@@H]1[C@H]2OC(=O)[C@@H]1[C@]1(O)C[C@H]3O[C@]34C(=O)O[C@H]2[C@]14C in this test.
Solution: inactive

Exercise: Look up the recorded call for CCCCCN(C)CCC(O)(P(=O)(O)O)P(=O)(O)O in this test.
Solution: inactive

Exercise: Look up the recorded call for CNC(C)Cc1ccccc1 (stereo not given) in this test.
Solution: inactive

Exercise: Look up the recorded call for O=C1CCO1 in this test.
Solution: inactive

Exercise: Look up the recorded call for COc1ccc(OC)c([C@@H](O)[C@H](C)N)c1 in this test.
Solution: inactive

Exercise: Look up the recorded call for CN(C)[C@H](Cc1ccccc1)c1ccccc1 in this test.
Solution: inactive

Exercise: Look up the recorded call for CCON=O in this test.
Solution: inactive

Exercise: Look up the recorded call for CC(N)Cc1ccc2c(c1)OCO2 (stereo not given) in this test.
Solution: inactive

Exercise: Look up the recorded call for CC(=O)O[C@H]1CC[C@H]2[C@@H]3CCC4=CC(=O)CCC4=C3C=C[C@]12C in this test.
Solution: inactive

Exercise: Look up the recorded call for CCC/C=C/C=C/C(=O)O[C@H]1/C(=C/C(=O)OC)C[C@H]2C[C@H]([C@@H](C)O)OC(=O)C[C@H](O)C[C@@H]3C[C@H](OC(C)=O)C(C)(C)[C@](O)(C[C@@H]4C/C(=C/C(=O)OC)C[C@H](/C=C/C(C)(C)[C@]1(O)O2)O4)O3 in this test.
Solution: inactive

Exercise: Look up the recorded call for COC([CH2][Hg])CNC(=O)c1ccccc1OCC(=O)O (stereo not given) in this test.
Solution: inactive

Exercise: Look up the recorded call for CN1c2ccccc2C(NCCCCCCC(=O)O)c2ccc(Cl)cc2S1(=O)=O (stereo not given) in this test.
Solution: inactive

Exercise: Look up the recorded call for Cc1nnc2n1-c1ccc(Cl)cc1C(c1ccccc1)=NC2 in this test.
Solution: inactive

Exercise: Look up the recorded call for CCC(=O)O[C@]1(c2ccccc2)CCN(C)C[C@H]1C in this test.
Solution: inactive

Exercise: Look up the recorded call for c1ccc2c(c1)Sc1ccccc1N2C[C@@H]1CN2CCC1CC2 in this test.
Solution: inactive

Exercise: Look up the recorded call for O=[N+]([O-])c1cc(I)c(O)c(I)c1 in this test.
Solution: active

Exercise: Look up the recorded call for C[C@@H](CO)NC(=O)[C@@H]1C=C2c3cccc4[nH]cc(c34)C[C@H]2N(C)C1 in this test.
Solution: inactive

Exercise: Look up the recorded call for CN[C@]1(c2ccccc2Cl)CCCCC1=O in this test.
Solution: inactive

Exercise: Look up the recorded call for C=C[C@H]1CN2CC[C@H]1C[C@@H]2[C@@H](O)c1ccnc2ccccc12 in this test.
Solution: inactive

Exercise: Look up the recorded call for CC(N)Cc1ccc(O)cc1 (stereo not given) in this test.
Solution: inactive

Exercise: Look up the recorded call for N#CC1(N2CCCCC2)CCCCC1 in this test.
Solution: inactive

Exercise: Look up the recorded call for CC(C)=CCN1CC[C@]2(C)c3cc(O)ccc3C[C@H]1[C@H]2C in this test.
Solution: inactive

Exercise: Look up the recorded call for O=C(Nc1ccccc1-c1ccc(Cl)cc1)c1cccnc1Cl in this test.
Solution: inactive

Exercise: Look up the recorded call for CN(C)CCCCCCN(C)C in this test.
Solution: inactive

Exercise: Look up the recorded call for O=C(CCl)c1ccc(Oc2ccc(C(=O)CCl)cc2)cc1 in this test.
Solution: inactive

Exercise: Look up the recorded call for Cc1cccc(C(C)c2cnc[nH]2)c1C (stereo not given) in this test.
Solution: inactive

Exercise: Look up the recorded call for [2H]C([2H])([2H])[C@H](N)Cc1ccccc1 in this test.
Solution: inactive

Exercise: Look up the recorded call for C[C@]12C=CC(=O)C=C1CC[C@@H]1[C@@H]2CC[C@]2(C)OC(=O)CC[C@@H]12 in this test.
Solution: inactive

Exercise: Look up the recorded call for O=C(OCCN1CCCCC1)C(O)(c1ccccc1)c1ccccc1 in this test.
Solution: inactive

Exercise: Look up the recorded call for CCOC(=O)C(O)(c1ccc(Cl)cc1)c1ccc(Cl)cc1 in this test.
Solution: inactive

Exercise: Look up the recorded call for CCCCC[C@@H](O)C1C(=O)OC(C)[C@H](O)/C=C/C=C/C=C/C=C/C=C(\C)C(O)C(O)C(O)C[C@H](O)C[C@H](O)C[C@H](O)C[C@H](O)C[C@@H]1O (stereo not given in full) in this test.
Solution: inactive

Exercise: Look up the recorded call for c1ccc(C2(c3ccccc3)CC2C2=NCCN2)cc1 (stereo not given) in this test.
Solution: inactive
